organism: Rattus norvegicus; test: Open TG-GATES - Regimen: Single; assay type: toxicity, organism-based, Sprague-Dawley; set-up: regimen Single, gender Male, age 6 weeks; settings: in vivo, po, 10 mg/kg, 3 h, tissue Blood, route gavage, dose level Low
Collected Eos values appear next to each entry.
measure name: Eos (%)

# compound, measure name, readout units, numeric result
measured = [
    ("CC(C)OC(=O)C(C)(C)Oc1ccc(C(=O)c2ccc(Cl)cc2)cc1 [FENOFIBRATE]", "Eos", "%", 0.6),
    ("CC1=C(/C=C/C(C)=C/C=C/C(C)=C/CO)C(C)(C)CCC1", "Eos", "%", 0.8),
    ("CN(C)CCN(Cc1cccs1)c1ccccn1", "Eos", "%", 0.6),
    ("CN(C)CCCN1c2ccccc2CCc2ccccc21", "Eos", "%", 1.2),
    ("CN(C)CCCN1c2ccccc2CCc2ccc(Cl)cc21", "Eos", "%", 1),
]
